biological target: AXL (Homo sapiens); assay: Enzymatic assay (ADP-Glo kinase reaction), AXL; type: biochemical; conditions: 10 μM ATP, 60 min, ADP-GLO luminescence
I'd be grateful if you could share measured IC50 for these entries.

Study these solved cases before continuing.
compound	target	IC50
COCCN1CCN(C(=O)/C=C/c2c(Oc3ccc(NC(=O)c4cn(C(C)C)c(=O)n(-c5ccc(F)cc5)c4=O)cc3F)ccnc2N)CC1 [Example 4]	AXL (Homo sapiens)	< 10 nM
CN(C)C(=O)Cn1cc(C(=O)Nc2ccc(Oc3ccnc(N)c3C#CCC3CCNCC3)c(F)c2)c(=O)n(-c2ccc(F)cc2)c1=O [Example 38]	AXL (Homo sapiens)	< 100 nM
Cn1nc(C(=O)Nc2ccc(Oc3ccnc(N)c3C#CC(C)(C)N3CCOCC3)c(F)c2)c(=O)n(-c2ccc(F)cc2)c1=O [Example 48]	AXL (Homo sapiens)	< 100 nM
CC(C)n1cc(C(=O)Nc2ccc(Oc3ccnc(N)c3/C=C/C(=O)N3CCNCC3)c(F)c2)c(=O)n(-c2ccc(F)cc2)c1=O [Example 3]	AXL (Homo sapiens)	< 10 nM
CC(C)n1cc(C(=O)Nc2ccc(Oc3ccnc(N)c3C#CC(=O)N3CCOCC3)c(F)c2)c(=O)n(-c2ccc(F)cc2)c1=O [Example 14]	AXL (Homo sapiens)	< 10 nM

Okay, now this compound:
input: # lookup: AXL (Homo sapiens) IC50, key = Cc1nc(Cn2cc(C(=O)Nc3ccc(Oc4ccnc(N)c4C#CC(C)(C)N4CCNCC4)c(F)c3)c(=O)n(-c3ccc(F)cc3)c2=O)cs1 [Example 41]
output: < 100 nM

----------
target: MER (Homo sapiens); experiment: Enzymatic assay (ADP-Glo kinase reaction), MER; format: biochemical; details: 10 μM ATP, 60 min, ADP-GLO luminescence
parameter_measured: IC50

Study these solved cases before continuing.
compound	observed
CC(C)n1cc(C(=O)Nc2ccc(Oc3ccnc(N)c3C#CCC3CCNCC3)c(F)c2)c(=O)n(-c2ccc(F)cc2)c1=O [Example 27]	< 10 nM
COCCN1CCC(C#Cc2c(Oc3ccc(NC(=O)c4cn(C(C)C)c(=O)n(-c5ccc(F)cc5)c4=O)cc3F)ccnc2N)CC1 [Example 16]	< 10 nM
COCCN1CCN(C(C)(C)C#Cc2c(Oc3ccc(NC(=O)c4cn(C(C)C)c(=O)n(-c5ccc(F)cc5)c4=O)cc3F)ccnc2N)CC1 [Example 20]	< 10 nM
CC(C)n1cc(C(=O)Nc2ccc(Oc3ccnc(N)c3C#CC(C)(C)N3CCNCC3)c(F)c2)c(=O)n(-c2ccc(F)cc2)c1=O [Example 19]	< 10 nM
Cn1nc(C(=O)Nc2ccc(Oc3ccnc(N)c3C#CCN3CCOCC3)c(F)c2)c(=O)n(-c2ccc(F)cc2)c1=O [Example 49]	< 100 nM
CN1CCN(C(C)(C)C#Cc2c(Oc3ccc(NC(=O)c4cn(C5CCOCC5)c(=O)n(-c5ccc(F)cc5)c4=O)cc3F)ccnc2N)CC1 [Example 57]	< 10 nM

Okay, now this compound:
input: # lookup: MER (Homo sapiens) IC50, key = Cc1nc(Cn2cc(C(=O)Nc3ccc(Oc4ccnc(N)c4C#CC(C)(C)N4CCNCC4)c(F)c3)c(=O)n(-c3ccc(F)cc3)c2=O)cs1 [Example 41]
output: < 100 nM

----------
molecular target: UniProt Q12866; experiment: Enzymatic assay (ADP-Glo kinase reaction), MER; type: biochemical; conditions: 10 μM ATP, 60 min, ADP-GLO luminescence
parameter_measured: IC50

Study these solved cases before continuing.
chemical_smiles	observed
CC(C)n1cc(C(=O)Nc2ccc(Oc3ccnc(N)c3C#CC(=O)N3CCOCC3)c(F)c2)c(=O)n(-c2ccc(F)cc2)c1=O	< 10 nM
CN1CCC(CC#Cc2c(Oc3ccc(NC(=O)c4c[nH]c(=O)n(-c5ccc(F)cc5)c4=O)cc3F)ccnc2N)CC1	< 100 nM
C=CCn1cc(C(=O)Nc2ccc(Oc3ccnc(N)c3C#CCC3CCN(C)CC3)c(F)c2)c(=O)n(CC=C)c1=O	< 100 nM
CC(C)n1cc(C(=O)Nc2ccc(Oc3ccnc(N)c3C#CCN3CCN(C)CC3)c(F)c2)c(=O)n(-c2ccc(F)cc2)c1=O	< 10 nM
CC(C)n1cc(C(=O)Nc2ccc(Oc3ccnc(N)c3C#N)c(F)c2)c(=O)n(-c2ccc(F)cc2)c1=O	< 10 nM

State the recorded IC50 for every item in the following list.
1. CC(C)n1cc(C(=O)Nc2ccc(Oc3ccnc(N)c3-c3ccc(Oc4ccccc4)cc3)c(F)c2)c(=O)n(-c2ccc(F)cc2)c1=O
2. CCCn1cc(C#Cc2c(Oc3ccc(NC(=O)c4cn(C(C)C)c(=O)n(-c5ccc(F)cc5)c4=O)cc3F)ccnc2N)cn1

output:
1. < 10 nM
2. < 10 nM

----------
Target: MER (Homo sapiens, UniProt Q12866)
Sequence (Q12866 21-999): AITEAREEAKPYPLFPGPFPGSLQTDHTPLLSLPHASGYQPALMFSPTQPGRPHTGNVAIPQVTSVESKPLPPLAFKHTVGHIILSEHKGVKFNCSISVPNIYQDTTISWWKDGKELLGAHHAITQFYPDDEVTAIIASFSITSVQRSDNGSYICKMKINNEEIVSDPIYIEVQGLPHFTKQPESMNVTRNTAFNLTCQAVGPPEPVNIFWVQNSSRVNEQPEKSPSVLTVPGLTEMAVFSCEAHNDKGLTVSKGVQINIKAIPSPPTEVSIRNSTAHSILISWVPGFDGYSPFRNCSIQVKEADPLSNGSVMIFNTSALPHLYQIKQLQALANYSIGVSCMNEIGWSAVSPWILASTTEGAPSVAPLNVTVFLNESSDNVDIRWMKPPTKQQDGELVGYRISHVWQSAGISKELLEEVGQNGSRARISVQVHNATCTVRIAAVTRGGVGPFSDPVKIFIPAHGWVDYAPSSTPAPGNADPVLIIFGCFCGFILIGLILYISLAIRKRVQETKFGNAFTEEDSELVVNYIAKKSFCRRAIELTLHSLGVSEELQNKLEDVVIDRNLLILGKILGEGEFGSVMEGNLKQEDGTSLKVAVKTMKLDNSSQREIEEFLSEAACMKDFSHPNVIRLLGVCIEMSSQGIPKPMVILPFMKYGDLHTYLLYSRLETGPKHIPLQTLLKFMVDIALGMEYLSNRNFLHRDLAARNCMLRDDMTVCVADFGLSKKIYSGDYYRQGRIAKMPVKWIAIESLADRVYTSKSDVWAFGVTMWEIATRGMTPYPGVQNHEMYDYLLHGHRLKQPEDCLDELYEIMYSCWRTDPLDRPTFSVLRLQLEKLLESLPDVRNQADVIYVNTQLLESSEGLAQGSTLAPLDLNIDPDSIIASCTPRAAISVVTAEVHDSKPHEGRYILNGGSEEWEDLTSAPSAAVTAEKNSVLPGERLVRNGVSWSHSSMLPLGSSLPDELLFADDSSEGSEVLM
Test: Enzymatic assay (ADP-Glo kinase reaction), MER
Type: biochemical
Settings: 10 μM ATP, 60 min, ADP-GLO luminescence
I'd be grateful if you could share measured IC50 for these entries.

Study these solved cases before continuing.
compound	parameter_measured	observed
COCCN1CCN(C(=O)/C=C/c2c(Oc3ccc(NC(=O)c4cn(C(C)C)c(=O)n(-c5ccc(F)cc5)c4=O)cc3F)ccnc2N)CC1 [Example 4]	IC50	< 10 nM
COCCN1CCN(C(=O)CCc2c(Oc3ccc(NC(=O)c4cn(C(C)C)c(=O)n(-c5ccc(F)cc5)c4=O)cc3F)ccnc2N)CC1 [Example 21]	IC50	< 1000 nM
CN1CCC(CC#Cc2c(Oc3ccc(NC(=O)c4nn(C)c(=O)n(-c5ccc(F)cc5)c4=O)cc3F)ccnc2N)CC1 [Example 45]	IC50	< 100 nM
Cn1nc(C(=O)Nc2ccc(Oc3ccnc(N)c3C#CCC3CCNCC3)c(F)c2)c(=O)n(-c2ccc(F)cc2)c1=O [Example 46]	IC50	< 100 nM
CN1CCC(CC#Cc2c(Oc3ccc(NC(=O)c4cn(CC(=O)N(C)C)c(=O)n(-c5ccc(F)cc5)c4=O)cc3F)ccnc2N)CC1 [Example 37]	IC50	< 10 nM

Okay, now this compound:
input: Report IC50, nothing else, for this compound: CN1CCC(CC#Cc2c(Oc3ccc(NC(=O)c4cn(C5CCOCC5)c(=O)n(-c5ccc(F)cc5)c4=O)cc3F)ccnc2N)CC1 [Example 60]
output: < 10 nM

----------
I'd be grateful if you could share measured IC50 for these entries.
target: AXL (Homo sapiens, UniProt P30530); assay: Enzymatic assay (ADP-Glo kinase reaction), AXL; type: biochemical; conditions: 10 μM ATP, 60 min, ADP-GLO luminescence
Sequence (P30530 26-894): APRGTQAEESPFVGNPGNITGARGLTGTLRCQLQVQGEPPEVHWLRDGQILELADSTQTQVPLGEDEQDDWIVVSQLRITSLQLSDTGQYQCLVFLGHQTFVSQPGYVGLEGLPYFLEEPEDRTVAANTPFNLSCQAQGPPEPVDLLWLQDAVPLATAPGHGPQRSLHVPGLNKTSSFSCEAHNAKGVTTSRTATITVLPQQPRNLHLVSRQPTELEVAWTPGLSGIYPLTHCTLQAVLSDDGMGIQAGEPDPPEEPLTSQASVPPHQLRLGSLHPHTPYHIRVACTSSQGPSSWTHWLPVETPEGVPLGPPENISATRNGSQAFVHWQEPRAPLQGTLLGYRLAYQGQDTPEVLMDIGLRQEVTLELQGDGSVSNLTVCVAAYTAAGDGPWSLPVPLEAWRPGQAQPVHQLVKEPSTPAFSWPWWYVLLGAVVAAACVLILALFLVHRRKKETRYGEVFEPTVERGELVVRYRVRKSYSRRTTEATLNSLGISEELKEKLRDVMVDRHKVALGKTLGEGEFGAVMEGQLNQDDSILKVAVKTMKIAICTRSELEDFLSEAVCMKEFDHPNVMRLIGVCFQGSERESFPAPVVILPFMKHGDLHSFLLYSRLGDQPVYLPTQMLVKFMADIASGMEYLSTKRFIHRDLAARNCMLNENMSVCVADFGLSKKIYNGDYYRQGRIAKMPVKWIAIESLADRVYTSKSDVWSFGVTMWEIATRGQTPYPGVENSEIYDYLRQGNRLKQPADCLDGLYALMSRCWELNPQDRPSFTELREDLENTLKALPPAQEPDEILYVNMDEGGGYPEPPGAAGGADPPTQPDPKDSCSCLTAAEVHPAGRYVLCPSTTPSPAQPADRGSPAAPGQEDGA

Study these solved cases before continuing.
chemical_smiles	target	IC50
CC(C)n1cc(C(=O)Nc2ccc(Oc3ccnc(N)c3C#CCN3CCOCC3)c(F)c2)c(=O)n(-c2ccc(F)cc2)c1=O	AXL (Homo sapiens, UniProt P30530)	< 10 nM
CC(C)n1cc(C(=O)Nc2ccc(Oc3ccnc(N)c3C#CC3CCN(C)CC3)c(F)c2)c(=O)n(-c2ccc(F)cc2)c1=O	AXL (Homo sapiens, UniProt P30530)	< 10 nM

input: Report IC50, nothing else, for this molecule: CCCn1cc(-c2c(Oc3ccc(NC(=O)c4cn(C(C)C)c(=O)n(-c5ccc(F)cc5)c4=O)cc3F)ccnc2N)cn1
output: < 1000 nM
